conditions: in water, 318.15 K
observed property: solubility (mole fraction)
Lab note: record the figure alone, no unit after it.

Looking up CC1(C)CCC2=C(O1)c1ccccc1C(=O)C2=O , I found its solubility (mole fraction) recorded as 6.12e-06

====

conditions: in methanol, 313.15 K
observed property: solubility (mole fraction)
Lab note: record the figure alone, no unit after it.

Looking up CC1(C)CCC2=C(O1)c1ccccc1C(=O)C2=O , I found its solubility (mole fraction) recorded as 0.0101

====

conditions: in isopropanol, 308.15 K
observed property: solubility (mole fraction)
Lab note: record the figure alone, no unit after it.

Looking up CC1(C)CCC2=C(O1)c1ccccc1C(=O)C2=O , I found its solubility (mole fraction) recorded as 0.00528
